STUDY_SYSTEM: ACE2 (human, UniProt Q9BYF1 18-740)
Sequence (Q9BYF1 18-740 limits assumed): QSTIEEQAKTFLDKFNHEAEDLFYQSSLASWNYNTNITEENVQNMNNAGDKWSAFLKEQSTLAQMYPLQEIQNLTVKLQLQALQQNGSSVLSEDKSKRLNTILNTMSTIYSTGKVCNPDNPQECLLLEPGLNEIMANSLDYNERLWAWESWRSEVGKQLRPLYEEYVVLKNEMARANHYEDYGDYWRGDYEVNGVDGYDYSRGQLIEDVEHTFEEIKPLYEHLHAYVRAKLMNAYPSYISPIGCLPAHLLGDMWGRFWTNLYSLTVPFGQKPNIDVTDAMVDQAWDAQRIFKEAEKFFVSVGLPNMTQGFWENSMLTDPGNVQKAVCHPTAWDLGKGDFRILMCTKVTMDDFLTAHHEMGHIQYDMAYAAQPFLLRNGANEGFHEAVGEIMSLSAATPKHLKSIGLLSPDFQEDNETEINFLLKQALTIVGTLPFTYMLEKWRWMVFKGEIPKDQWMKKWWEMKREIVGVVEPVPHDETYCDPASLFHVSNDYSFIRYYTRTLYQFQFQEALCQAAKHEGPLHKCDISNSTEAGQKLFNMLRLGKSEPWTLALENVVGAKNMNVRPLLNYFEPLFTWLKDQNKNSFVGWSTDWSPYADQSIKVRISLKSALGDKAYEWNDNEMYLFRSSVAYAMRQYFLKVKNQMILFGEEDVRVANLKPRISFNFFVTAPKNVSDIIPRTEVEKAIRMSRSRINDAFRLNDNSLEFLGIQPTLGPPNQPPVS
OBSERVATION_TYPE: Kd (nM)
Give just the number in nM; leave the unit off.

Briefly, Kd measured for ACE2 variant antibody 4-39 (VHH) VHH: EVQLVESGGGLVQPGGSLRLSCAASGRTFSNAAMGWFRQAPGKEREFVARILWTGASRNYADSVKGRFTISADNSKNTAYLQMNSLKPEDTAVYYCATTENPNPRWGQGTLVTVSS : 101

Briefly, Kd measured for ACE2 variant antibody 4-33 (VHH) VHH: EVQLVESGGGLVQPGGSLRLSCAASGFTFSRHDMGWFRQAPGKEREFVAGINWESGSTNYADSVKGRFTISADNSKNTAYLQMNSLKPEDTAVYYCAADRGVYGGRWYRTSQYTWGQGTLVTVSS : 2.4

Briefly, Kd measured for ACE2 variant antibody 4-63 (VHH) VHH: EVQLVESGGGLVQPGGSLRLSCAASGRTFSDYTMGWFRQAPGKEREFVAAINWSGGYTYYADSVKGRFTISADNSKNTAYLQMNSLKPEDTAVYYCATDPPLFWGQGTLVTVSS : 1.7

Briefly, Kd measured for ACE2 variant antibody 4-25 (VHH) VHH: EVQLVESGGGLVQPGGSLRLSCAASGGTFSRYAMGWFRQAPGKEREWVSAVDSGGSTYYADSVKGRFTISADNSKNTAYLQMNSLKPEDTAVYYCAASPSLRSAWQWGQGTLVTVSS : 38.5
